- testSystem: CYP2D6 (Homo sapiens, UniProt P10635)
- Sequence (P10635 whole entry): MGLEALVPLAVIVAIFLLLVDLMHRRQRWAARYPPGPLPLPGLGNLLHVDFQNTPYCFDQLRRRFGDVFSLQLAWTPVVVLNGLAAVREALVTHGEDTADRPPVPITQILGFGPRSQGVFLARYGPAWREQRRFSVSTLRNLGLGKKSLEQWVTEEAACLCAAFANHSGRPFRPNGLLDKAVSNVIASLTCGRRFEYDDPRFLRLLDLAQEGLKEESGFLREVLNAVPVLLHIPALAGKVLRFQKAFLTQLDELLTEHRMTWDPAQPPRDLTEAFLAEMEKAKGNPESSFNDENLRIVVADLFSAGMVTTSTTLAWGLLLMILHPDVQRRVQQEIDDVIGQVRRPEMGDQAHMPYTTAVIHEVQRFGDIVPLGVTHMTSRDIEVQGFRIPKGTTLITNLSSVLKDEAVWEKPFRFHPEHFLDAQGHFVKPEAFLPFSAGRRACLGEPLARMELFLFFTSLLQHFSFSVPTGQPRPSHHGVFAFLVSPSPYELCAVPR
- protocolDetails: Inhibition of CYP2D6 at 10 uM
- Format: ADME
endpoint: inhibition at 10 µM (%)
Return type: number; implicit unit %.

Which measured inhibition at 10 µM value corresponds to COc1cccc(CNC(=O)c2[nH]c3cc(-c4cn[nH]c4)ccc3c2CN(C)C)c1 ?
48

// returns reported inhibition at 10 µM for input COc1cccc(CNC(=O)c2[nH]c3cc(-c4cn[nH]c4)ccc3c2CN2CCCNCC2)c1
81

Could you share which inhibition at 10 µM value was measured for COc1cccc(CN(CCN2CCCC2)C(=O)c2cc3ccc(-c4cn[nH]c4)cc3[nH]2)c1 ?
78

Using the record for COc1cccc(CNC(=O)c2[nH]c3nc(-c4cn[nH]c4)ccc3c2CN2CCOCC2)c1 , report its inhibition at 10 µM.
28

Attribution: ChEMBL document CHEMBL1921670
